# pKd per record follows
target: fIF, fluorescently labelled H14 foldamer IF; test: fluorescence polarisation; direct FP: S100 protein diluted in 50 nM labeled foldamer, 20 mM HEPES pH 7.5, 150 mM NaCl, 1 mM CaCl2, 0.5 mM TCEP, 0.01% Tween20; quadratic fit (ProFit); detection threshold Kd 1 mM
// returns pKd (minus log10 of molar concentration), number only

Binder	Test readout	Numeric result
S100P (natural protein) MTELETAMGMIIDVFSRYSGSEGSTQTLTKGELKVLMEKELPGFLQSGKDKDAVDKLLKDLDANGDAQVDFSEFIVFVAAITSACHKYFEKAGLK	pKd	3.85
S100A3 (natural protein) MARPLEQAVAAIVCTFQEYAGRCGDKYKLCQAELKELLQKELATWTPTEFRECDYNKFMSVLDTNKDCEVDFVEYVRSLACLCLYCHEYFKDCPSEPPCSQ	pKd	3.74
S100A5 (natural protein) METPLEKALTTMVTTFHKYSGREGSKLTLSRKELKELIKKELCLGEMKESSIDDLMKSLDKNSDQEIDFKEYSVFLTMLCMAYNDFFLEDNK	pKd	4.57
S100A11 (natural protein) MAKISSPTETERCIESLIAVFQKYAGKDGYNYTLSKTEFLSFMNTELAAFTKNQKDPGVLDRMMKKLDTNSDGQLDFSEFLNLIGGLAMACHDSFLKAVPSQKRT	pKd	3.55
S100Z (natural protein) MPTQLEMAMDTMIRIFHRYSGKERKRFKLSKGELKLLLQRELTEFLSCQKETQLVDKIVQDLDANKDNEVDFNEFVVMVAALTVACNDYFVEQLKKKGK	pKd	3.32

Next binder, please.
Q) Look up pKd: S100A12 (natural protein) MTKLEEHLEGIVNIFHQYSVRKGHFDTLSKGELKQLLTKELANTIKNIKDKAVIDEIFQGLDANQDEQVDFQEFISLVAIALKAAHYHTHKE
A) 3.23
